Field: pKi. Provide a value for each of the compounds that follow.
API: returns pKi as number; meaning -log10 of concentration in mol/L.

Entry Cc1nc(C(C)C)sc1-c1ccnc(Nc2ccc(N3CCNCC3)cn2)n1 [Compound 13] , system CDK1B (Homo sapiens): what pKi was measured?
5.43

Entry O=CN1CCN(c2ccc(Nc3nccc(-c4sc(NC5CCCC5)nc4C(F)(F)F)n3)nc2)CC1 [Compound 79] , system CDK1B (Homo sapiens): what pKi was measured?
6.46

Entry CCN1CCN(c2ccc(Nc3nccc(-c4sc(NC5CCCC5)nc4C)n3)nc2)CC1 [Compound 66] , system CDK1B (Homo sapiens): what pKi was measured?
5.52

Entry Cc1nc(NC2CCCC2)sc1-c1ccnc(Nc2ccc(N3CCN(C)CC3)cn2)n1 [Compound 63] , system CDK1B (Homo sapiens): what pKi was measured?
5.57

* * *

Molecular target: CDK1B (Homo sapiens, UniProt P06493)
Sequence (P06493 whole entry): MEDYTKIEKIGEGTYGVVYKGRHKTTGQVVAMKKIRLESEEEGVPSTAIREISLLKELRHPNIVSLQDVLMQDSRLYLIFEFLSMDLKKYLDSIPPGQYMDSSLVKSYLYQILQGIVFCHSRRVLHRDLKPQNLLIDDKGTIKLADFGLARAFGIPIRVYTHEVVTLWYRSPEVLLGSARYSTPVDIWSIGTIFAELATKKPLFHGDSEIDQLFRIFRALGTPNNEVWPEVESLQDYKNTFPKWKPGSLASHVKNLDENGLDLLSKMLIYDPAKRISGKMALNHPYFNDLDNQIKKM
Sequence (P14635 whole entry partner): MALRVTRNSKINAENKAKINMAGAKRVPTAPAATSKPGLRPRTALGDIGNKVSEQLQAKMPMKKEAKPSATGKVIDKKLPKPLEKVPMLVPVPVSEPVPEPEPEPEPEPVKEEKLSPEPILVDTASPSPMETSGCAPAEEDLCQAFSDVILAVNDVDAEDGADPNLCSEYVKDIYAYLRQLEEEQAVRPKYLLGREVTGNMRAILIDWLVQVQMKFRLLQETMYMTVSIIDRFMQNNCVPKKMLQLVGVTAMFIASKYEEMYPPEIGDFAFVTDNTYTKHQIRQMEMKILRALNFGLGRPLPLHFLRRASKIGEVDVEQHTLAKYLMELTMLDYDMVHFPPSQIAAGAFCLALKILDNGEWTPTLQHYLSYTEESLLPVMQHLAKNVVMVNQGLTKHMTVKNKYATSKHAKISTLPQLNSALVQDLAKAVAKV
Test: Kinase assay CDK1B (radiometric profiling service)
Assay type: biochemical
Conditions: compound at 10 μM; read-out: % remaining enzymatic activity at 10 μM CDK1B
Field: remaining activity at 10 µM. Provide a value for each of the molecules that follow.
Answer with a number only, understood to be in %.

Entry Cc1c(-c2ccnc(Nc3ccc(N4CCNCC4)cn3)n2)sc(=O)n1C1CCCC1 , system CDK1B (Homo sapiens, UniProt P06493): what remaining activity at 10 µM was measured?
63

Entry Cc1[nH]c(=O)sc1-c1ccnc(Nc2ccc(N3CCNCC3)cn2)n1 , system CDK1B (Homo sapiens, UniProt P06493): what remaining activity at 10 µM was measured?
58

Entry CC(=O)N1CCN(c2ccc(Nc3nccc(-c4sc(=O)[nH]c4C)n3)nc2)CC1 , system CDK1B (Homo sapiens, UniProt P06493): what remaining activity at 10 µM was measured?
55

Entry Cc1c(-c2ccnc(Nc3ccc(N4CCN(C)CC4)cn3)n2)sc(=O)n1C , system CDK1B (Homo sapiens, UniProt P06493): what remaining activity at 10 µM was measured?
71

Entry CNc1nc(C)c(-c2nc(Nc3ccc(N4CCNCC4)cn3)ncc2C#N)s1 , system CDK1B (Homo sapiens, UniProt P06493): what remaining activity at 10 µM was measured?
56

Entry CNc1nc(C)c(-c2nc(Nc3ccc(N4CCN(C)CC4)cn3)ncc2C#N)s1 , system CDK1B (Homo sapiens, UniProt P06493): what remaining activity at 10 µM was measured?
66

Entry Cc1[nH]c(=O)sc1-c1ccnc(Nc2ccc(N3CCN(C)CC3)cn2)n1 , system CDK1B (Homo sapiens, UniProt P06493): what remaining activity at 10 µM was measured?
51

* * *

Field: pKi. Provide a value for each of the compounds that follow.
Target: CDK4D1 (Homo sapiens, UniProt P11802)
Construct: purchased Eurofins Pharma Discovery or Reaction Biology Corporation (service)
Sequence (P11802 whole entry): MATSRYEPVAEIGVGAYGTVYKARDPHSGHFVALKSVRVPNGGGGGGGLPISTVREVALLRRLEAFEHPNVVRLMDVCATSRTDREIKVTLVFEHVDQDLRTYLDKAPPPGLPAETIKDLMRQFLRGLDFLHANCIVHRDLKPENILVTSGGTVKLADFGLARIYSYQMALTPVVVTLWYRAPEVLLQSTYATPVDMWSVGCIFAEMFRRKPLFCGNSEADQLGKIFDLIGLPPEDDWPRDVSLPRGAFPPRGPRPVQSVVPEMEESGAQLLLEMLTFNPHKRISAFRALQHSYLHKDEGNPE
Sequence (P24385 whole entry partner): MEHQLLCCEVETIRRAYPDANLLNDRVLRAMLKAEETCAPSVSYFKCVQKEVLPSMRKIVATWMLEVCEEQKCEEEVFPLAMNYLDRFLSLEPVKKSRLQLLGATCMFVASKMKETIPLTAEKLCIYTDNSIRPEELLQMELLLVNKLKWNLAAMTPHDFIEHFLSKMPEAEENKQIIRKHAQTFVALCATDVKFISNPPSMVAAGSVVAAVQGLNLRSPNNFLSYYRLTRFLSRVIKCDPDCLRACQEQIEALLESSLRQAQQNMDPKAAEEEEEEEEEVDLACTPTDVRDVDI
Assay: Kinase assay CDK4/D1 (radiometric or ADP Glo)
Format: biochemical
Conditions: apparent Ki calculated from Km (ATP) and IC50; read-out: CDK inhibition Ki CDK4D1
API: returns pKi as number; meaning -log10 of concentration in mol/L.

What does the record list as pKi for Cc1nc(NC2CCCC2)sc1-c1nc(Nc2ccc(N3CCN(S(C)(=O)=O)CC3)cn2)ncc1F ?
7.41

What does the record list as pKi for CCN1CCN(c2ccc(Nc3nccc(-c4sc(C(C)C)nc4C)n3)nc2)CC1 ?
8.30

What does the record list as pKi for Cc1nc(C(C)C)sc1-c1ccnc(Nc2ccc(N3CCOCC3)cn2)n1 ?
9.00

What does the record list as pKi for CCc1nc(C)c(-c2ccnc(Nc3ccc(N4CCNCC4)cn3)n2)s1 ?
7.23

What does the record list as pKi for Cc1nc(C)c(-c2nc(Nc3ccc(N4CCN(C)CC4)cn3)ncc2C#N)s1 ?
7.15

What does the record list as pKi for Cc1nc(NC(C)C)sc1-c1ccnc(Nc2ccc(N3CCNCC3)cn2)n1 ?
8.30

What does the record list as pKi for CNc1nc(C)c(-c2nc(Nc3ccc(N4CCOCC4)cn3)ncc2C#N)s1 ?
8.40

What does the record list as pKi for CNc1nc(C)c(-c2nc(Nc3ccc(N4CCCNCC4)cn3)ncc2F)s1 ?
8.52

What does the record list as pKi for Cc1nc(N(C)C2CCCC2)sc1-c1ccnc(Nc2ccc(N3CCNCC3)cn2)n1 ?
8.70

What does the record list as pKi for CCc1nc(C)c(-c2ccnc(Nc3ccc(N4CCN(C(C)=O)CC4)cn3)n2)s1 ?
6.54

What does the record list as pKi for CNc1nc(C)c(-c2ccnc(Nc3ccc(N4CCOCC4)cn3)n2)s1 ?
7.70

What does the record list as pKi for CN1CCN(c2ccc(Nc3nccc(-c4sc(NC5CCCC5)nc4C(F)(F)F)n3)nc2)CC1 ?
9.00

What does the record list as pKi for O=CN1CCN(c2ccc(Nc3nccc(-c4sc(NC5CCCC5)nc4C(F)(F)F)n3)nc2)CC1 ?
7.96

What does the record list as pKi for Cc1nc(N(C)C)sc1-c1ccnc(Nc2ccc(N3CCNCC3)cn2)n1 ?
7.68

What does the record list as pKi for CNc1nc(C)c(-c2nc(Nc3ccc(N4CCOCC4)cn3)ncc2F)s1 ?
8.30

What does the record list as pKi for CCN1CCN(c2ccc(Nc3ncc(F)c(-c4sc(NC5CCCC5)nc4C)n3)nc2)CC1 ?
8.70

What does the record list as pKi for CNc1nc(C)c(-c2nc(Nc3ccc(N4CCN(C(C)=O)CC4)cn3)ncc2F)s1 ?
7.77

Every entry's value here was drawn from patent USRE49850E1.
